Hello, the source for this data is ChEMBL document CHEMBL6092194, in case you need it.

Experiment: Selectivity index, ratio of HC50 for hemolytic activity in red blood cells (unknown origin) to MIC for antibacterial activity against penicillin-resistant Staphylococcus aureus ATCC43300
Format: toxicity, cell-based, RBC
Conditions: read-out: Selectivity Index
Measured selectivity ratio accompanies every entry in the list below.

Use these answered entries as a reference point.
Smiles Repr: CCCCCCCCCC(=O)Nc1cc[n+](CCCOc2ccc(C(=O)/C=C/c3ccccc3)cc2)cc1.[Br-]
selectivity ratio: 218
//
Smiles Repr: CCCCCCCC[N+](C)(C)CCCOc1ccc(/C=C/C(=O)c2ccc(OCCC[N+](C)(C)CCCCCCCC)cc2)cc1.[Br-].[Br-]
selectivity ratio: 129

Alright, here's another compound for you.
Query: Consider the compound `CCCCCCCCCC[N+](C)(C)CCCCCOc1ccc(C(=O)/C=C/c2ccccc2)cc1.[Br-]` and give its measured selectivity ratio.
Result: 10.5

====

Measured HC50 accompanies every entry in the list below.
Assay: Hemolytic activity in red blood cells (unknown origin)
Format: toxicity, cell-based, Erythrocyte
Give just the number in µg/mL; leave the unit off.

Use these answered entries as a reference point.
Smiles Repr: CCCCCCCCCCCC[N+](C)(C)CCCCCOc1ccc(C(=O)/C=C/c2ccccc2)cc1.[Br-]
Experimental Readout: HC50
Obs Value: 167
--
Smiles Repr: CCCCCCCCCC[N+](C)(C)CCCCCOc1ccc(C(=O)/C=C/c2ccccc2)cc1.[Br-]
Experimental Readout: HC50
Obs Value: 42
--
Smiles Repr: CCCCCCCC[N+](C)(C)CCCOc1ccc(/C=C/C(=O)c2ccc(OCCC[N+](C)(C)CCCCCCCC)cc2)cc1.[Br-].[Br-]
Experimental Readout: HC50
Obs Value: 129

Alright, here's another compound for you.
Query: Consider the compound `CCCCCCCCCC[N+](C)(C)CCCOc1ccc(/C=C/C(=O)c2ccc(OCCC[N+](C)(C)CCCCCCCCCC)cc2)cc1.[Br-].[Br-]` and give its measured HC50.
Result: 44

====

Experiment: Hemolytic activity in red blood cells (unknown origin)
Type: toxicity, cell-based, Erythrocyte
Experimental Readout: HC50 (µg/mL)
Give just the number in µg/mL; leave the unit off.

Use these answered entries as a reference point.
Smiles Repr: CCCCCC[N+](C)(C)CCCCCOc1ccc(C(=O)/C=C/c2ccccc2)cc1.[Br-]
HC50 [µg/mL]: 112
--
Smiles Repr: CCCCCCCC(=O)Nc1cc[n+](CCCOc2ccc(C(=O)/C=C/c3ccccc3)cc2)cc1.[Br-]
HC50 [µg/mL]: 887
--
Smiles Repr: CCCC[N+](C)(C)CCCOc1ccc(/C=C/C(=O)c2ccc(OCCC[N+](C)(C)CCCC)cc2)cc1.[Br-].[Br-]
HC50 [µg/mL]: 590
--
Smiles Repr: CCCCCCCCCCCC(=O)Nc1cc[n+](CCCOc2ccc(C(=O)/C=C/c3ccccc3)cc2)cc1.[Br-]
HC50 [µg/mL]: 753
--
Smiles Repr: CCCCCC[N+](C)(C)CCCOc1ccc(C(=O)/C=C/c2ccccc2)cc1.[Br-]
HC50 [µg/mL]: 49.6
--
Smiles Repr: CCCCCCCCCCCC[N+](C)(C)CCCCCCCOc1ccc(C(=O)/C=C/c2ccccc2)cc1.[Br-]
HC50 [µg/mL]: 47.4

Query: Consider the compound `CCCCCCCCOc1cc[n+](CCCOc2ccc(/C=C/C(=O)c3ccc(OCCC[n+]4ccc(OCCCCCCCC)cc4)cc3)cc2)cc1.[Br-].[Br-]` and give its measured HC50.
Result: 180

Query: Consider the compound `CCCCCCCCNC(=O)C[N+](C)(C)CCCOc1ccc(/C=C/C(=O)c2ccc(OCCC[N+](C)(C)CC(=O)NCCCCCCCC)cc2)cc1.[Br-].[Br-]` and give its measured HC50.
Result: 69.5

Query: Consider the compound `CCCCCCCCCCCCNC(=O)C[N+](C)(C)CCCOc1ccc(/C=C/C(=O)c2ccc(OCCC[N+](C)(C)CC(=O)NCCCCCCCCCCCC)cc2)cc1.[Br-].[Br-]` and give its measured HC50.
Result: 703

Query: Consider the compound `CCCCCCCC[N+](C)(C)CCCOc1ccc(C(=O)/C=C/c2ccccc2)cc1.[Br-]` and give its measured HC50.
Result: 17.2
